# study-target: IKZF2 (Homo sapiens, UniProt Q96SW2+Q9UKS7)
# Sequence (Q9UKS7 whole entry): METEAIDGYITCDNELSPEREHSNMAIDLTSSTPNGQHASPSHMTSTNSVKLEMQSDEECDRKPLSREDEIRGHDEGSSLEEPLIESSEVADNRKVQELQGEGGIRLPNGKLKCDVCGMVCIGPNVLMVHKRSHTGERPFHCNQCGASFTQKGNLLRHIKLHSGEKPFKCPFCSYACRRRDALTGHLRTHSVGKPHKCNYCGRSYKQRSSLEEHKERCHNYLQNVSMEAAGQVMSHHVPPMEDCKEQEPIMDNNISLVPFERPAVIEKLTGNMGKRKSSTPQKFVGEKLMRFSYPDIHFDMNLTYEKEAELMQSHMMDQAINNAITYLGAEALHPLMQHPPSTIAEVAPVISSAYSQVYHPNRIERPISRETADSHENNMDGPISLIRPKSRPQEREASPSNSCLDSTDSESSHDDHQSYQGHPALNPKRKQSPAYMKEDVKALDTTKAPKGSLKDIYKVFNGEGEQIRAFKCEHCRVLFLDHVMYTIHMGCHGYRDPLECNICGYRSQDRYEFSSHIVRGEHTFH
# Sequence (Q96SW2 whole entry): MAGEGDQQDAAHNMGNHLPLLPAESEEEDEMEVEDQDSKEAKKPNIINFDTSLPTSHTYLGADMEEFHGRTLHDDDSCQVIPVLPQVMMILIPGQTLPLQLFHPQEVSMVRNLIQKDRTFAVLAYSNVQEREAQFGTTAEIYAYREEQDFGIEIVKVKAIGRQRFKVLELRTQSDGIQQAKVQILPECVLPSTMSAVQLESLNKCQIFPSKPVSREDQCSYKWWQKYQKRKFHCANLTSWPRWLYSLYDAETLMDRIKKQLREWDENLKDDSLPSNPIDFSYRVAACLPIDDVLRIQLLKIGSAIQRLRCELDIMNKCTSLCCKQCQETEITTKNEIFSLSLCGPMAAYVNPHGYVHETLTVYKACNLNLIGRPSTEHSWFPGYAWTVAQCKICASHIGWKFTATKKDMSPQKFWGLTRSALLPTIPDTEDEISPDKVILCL
# Sequence (Q16531 whole entry partner): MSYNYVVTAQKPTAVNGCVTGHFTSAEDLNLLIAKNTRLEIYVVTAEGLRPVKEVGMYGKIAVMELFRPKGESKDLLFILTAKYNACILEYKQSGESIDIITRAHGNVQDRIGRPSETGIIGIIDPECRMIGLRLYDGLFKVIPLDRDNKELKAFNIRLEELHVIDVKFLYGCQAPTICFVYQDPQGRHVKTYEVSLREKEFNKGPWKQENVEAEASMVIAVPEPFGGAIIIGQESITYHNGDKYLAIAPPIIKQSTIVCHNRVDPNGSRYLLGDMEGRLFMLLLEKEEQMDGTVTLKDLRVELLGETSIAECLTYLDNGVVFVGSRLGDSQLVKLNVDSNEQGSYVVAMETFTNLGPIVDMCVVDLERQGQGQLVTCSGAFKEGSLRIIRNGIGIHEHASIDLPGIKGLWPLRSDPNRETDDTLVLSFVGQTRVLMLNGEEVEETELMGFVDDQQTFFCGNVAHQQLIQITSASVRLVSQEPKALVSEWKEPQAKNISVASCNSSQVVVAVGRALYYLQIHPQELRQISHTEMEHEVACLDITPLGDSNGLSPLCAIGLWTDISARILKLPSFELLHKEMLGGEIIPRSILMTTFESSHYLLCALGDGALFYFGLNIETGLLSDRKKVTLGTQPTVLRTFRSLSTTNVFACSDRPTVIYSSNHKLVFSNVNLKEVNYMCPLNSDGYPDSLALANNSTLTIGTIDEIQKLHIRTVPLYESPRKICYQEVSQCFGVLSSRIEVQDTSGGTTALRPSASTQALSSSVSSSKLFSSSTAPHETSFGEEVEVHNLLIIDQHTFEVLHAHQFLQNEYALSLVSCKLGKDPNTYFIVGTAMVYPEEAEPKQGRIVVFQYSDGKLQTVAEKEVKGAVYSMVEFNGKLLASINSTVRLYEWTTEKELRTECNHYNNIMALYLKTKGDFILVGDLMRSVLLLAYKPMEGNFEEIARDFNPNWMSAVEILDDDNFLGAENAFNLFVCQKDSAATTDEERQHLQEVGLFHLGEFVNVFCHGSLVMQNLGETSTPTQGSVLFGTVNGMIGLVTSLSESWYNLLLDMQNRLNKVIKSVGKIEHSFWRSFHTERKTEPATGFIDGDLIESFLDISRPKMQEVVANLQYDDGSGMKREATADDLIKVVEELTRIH
# protocol-notes: Jurkat IKZF2 degradation (flow cytometry)
# Assay type: cell-based
# Parameters: endogenous in cells
# test-settings: Jurkat cells, overnight incubation; maximum degradation at the highest concentration tested
measurement-name: Dmax (%)

compound	study-target	unit-abbreviation	reported-result
CCN[C@H]1CCCC[C@@H]1Cc1ccc2c(c1)CN(C1CCC(=O)NC1=O)C2=O (stereo partly shown)	IKZF2 (Homo sapiens, UniProt Q96SW2+Q9UKS7)	%	83
CC(N[C@H]1CCCC[C@@H]1Cc1ccc2c(c1)CN(C1CCC(=O)NC1=O)C2=O)C1CCC1 (stereo partly shown)	IKZF2 (Homo sapiens, UniProt Q96SW2+Q9UKS7)	%	93
O=C1CCC(N2Cc3cc(C[C@H]4CCCC[C@@H]4NC4CCC(F)(F)CC4)ccc3C2=O)C(=O)N1 (stereo partly shown)	IKZF2 (Homo sapiens, UniProt Q96SW2+Q9UKS7)	%	95
O=C1CCC(N2Cc3cc(O[C@H]4CCCC[C@@H]4NC4CCC(F)(F)CC4)ccc3C2=O)C(=O)N1 (stereo partly shown)	IKZF2 (Homo sapiens, UniProt Q96SW2+Q9UKS7)	%	94

Origin of values: patent US11897862B2
